- tgt: mouse TGR5 receptor (Mus musculus, UniProt Q80SS6)
- Construct: expressed in transfected cells; host or cells: HEK293-EBNA (293 c18, ATCC CRL10852), Hygromycin B selection
- measurement notes: Mouse TGR5 cAMP production assay (HTRF, Cisbio cAMP HiRange)
- Type: cell-based
- run parameters: HEK293-EBNA cells overexpressing mouse TGR5, HTRF cAMP HiRange; coded A-D
pEC50: −log10 of the molar value.
# reported pEC50; entries follow

Solved cases below.
Sure, the documented pEC50 for CCc1cnccc1-c1cccc([C@H](C)N(CCCCC(=O)O)S(=O)(=O)c2cccc(Cl)c2C)c1 [Compound 16AG] is > 7.00

Sure, the documented pEC50 for CC(C)(NS(=O)(=O)c1ccccc1C(F)(F)F)c1cccc(-c2ccnnc2)c1 is 4.52 to 6.00

Sure, the documented pEC50 for CCc1cnccc1-c1cccc([C@H](C)N(CCCC(=O)NCCS(=O)(=O)NCC(=O)O)S(=O)(=O)c2cccc(Cl)c2C)c1 [Compound 21AT] is > 7.00

Others:
Sure, the documented pEC50 for Cc1c(Cl)cccc1S(=O)(=O)N1CCN(C(=O)CS(=O)(=O)O)CC1c1cccc(-c2ccncc2Cl)c1 (stereo not shown) [Compound 49AE] is > 7.00

Sure, the documented pEC50 for Cc1ccccc1S(=O)(=O)N(CCCC(=O)NCCS(=O)(=O)O)[C@@H](C)c1cccc(-c2ccncc2O)c1 [Compound 22AA] is 4.52 to 6.00

Sure, the documented pEC50 for Cc1cnccc1-c1cccc([C@H](CC(=O)O)NS(=O)(=O)c2ccccc2C(F)(F)F)c1 is 6.00 to 7.00

Sure, the documented pEC50 for Cc1cnccc1-c1cccc([C@H](C)N(CCCC(=O)N2CCC[C@H]2C(=O)O)S(=O)(=O)c2cccc(Cl)c2C)c1 [Compound 21AJ] is 6.00 to 7.00

----------
- measurement notes: Absorption vs. first pass metabolism: Cmax with and without 1-aminobenzotriazole (ABT) pre-treatment
- Assay type: in vivo, mouse
- run parameters: ICR, mouse, plasma; lean mice receiving ABT (150 mg/kg) 2 h before compound, 10 mg/kg oral
property name: Tmax (min)
The reply should contain only the number, in min.

Sure, the documented Tmax for Cc1cnccc1-c1cccc(C(C)(C)N(CCCC(=O)NCCS(=O)(=O)O)S(=O)(=O)c2ccccc2C(F)(F)F)c1 [Compound 20AA] is 15

----------
- tgt: human TGR5 receptor (Homo sapiens)
- Sequence (Q8TDU6 whole entry): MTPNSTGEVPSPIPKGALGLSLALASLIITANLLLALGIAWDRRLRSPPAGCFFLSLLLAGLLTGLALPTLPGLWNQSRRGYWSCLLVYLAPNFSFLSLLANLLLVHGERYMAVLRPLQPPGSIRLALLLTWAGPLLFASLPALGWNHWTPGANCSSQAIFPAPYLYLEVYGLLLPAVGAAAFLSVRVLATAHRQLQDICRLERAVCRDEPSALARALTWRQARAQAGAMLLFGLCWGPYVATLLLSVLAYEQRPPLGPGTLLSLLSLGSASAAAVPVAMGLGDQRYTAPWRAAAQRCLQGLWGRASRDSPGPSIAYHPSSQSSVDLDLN
- measurement notes: Human TGR5 cAMP production assay
- run parameters: human TGR5, luminescent cAMP assay; coded A-D; read-out: Human TGR5 Lum. cAMP Activity (EC50)
pEC50: −log10 of the molar value.
# reported pEC50; entries follow

Solved cases below.
Lab note: compound Cc1cnccc1-c1cccc([C@H](C)N(CCC(=O)O)S(=O)(=O)c2cccc(Cl)c2C)c1 [Compound 16AK] tested on human TGR5 receptor (Homo sapiens); recorded pEC50 was 4.52 to 6.00

Lab note: compound COCCN(C(C)(C)c1cccc(-c2ccncc2C)c1)S(=O)(=O)c1ccccc1C(F)(F)F [Compound 13AA] tested on human TGR5 receptor (Homo sapiens); recorded pEC50 was > 7.00

Lab note: compound Cc1ccc(C(C)(C)NS(=O)(=O)c2cccc(C(F)(F)F)c2)cc1-c1ccncc1 tested on human TGR5 receptor (Homo sapiens); recorded pEC50 was 4.52 to 6.00

Lab note: compound COc1cnccc1-c1cccc(C(C)(C)NS(=O)(=O)c2cccc(Cl)c2C)c1 tested on human TGR5 receptor (Homo sapiens); recorded pEC50 was > 7.00

Lab note: compound CCc1cnccc1-c1cc(O)cc(C(C)(C)NS(=O)(=O)c2ccccc2C(F)(F)F)c1 tested on human TGR5 receptor (Homo sapiens); recorded pEC50 was > 7.00

Others:
Lab note: compound CN(C)c1cc(-c2cccc(C(C)(C)NS(=O)(=O)c3ccccc3C(F)(F)F)c2)ccn1 tested on human TGR5 receptor (Homo sapiens); recorded pEC50 was 4.52 to 6.00

Lab note: compound COc1cnccc1-c1cccc(C(C)(C)NS(=O)(=O)c2cccc(Cl)c2)c1 tested on human TGR5 receptor (Homo sapiens); recorded pEC50 was 6.00 to 7.00

Lab note: compound COc1cnccc1-c1cccc(C2CCCN2S(=O)(=O)c2cccc(C(F)(F)F)c2)c1 (centres unmarked) tested on human TGR5 receptor (Homo sapiens); recorded pEC50 was 6.00 to 7.00

----------
# reported EC50; entries follow
- tgt: mouse TGR5 receptor (Mus musculus)
- Construct: expressed in transfected cells; host or cells: HEK293-EBNA (293 c18, ATCC CRL10852), Hygromycin B selection
- Sequence (Q80SS6 1-329): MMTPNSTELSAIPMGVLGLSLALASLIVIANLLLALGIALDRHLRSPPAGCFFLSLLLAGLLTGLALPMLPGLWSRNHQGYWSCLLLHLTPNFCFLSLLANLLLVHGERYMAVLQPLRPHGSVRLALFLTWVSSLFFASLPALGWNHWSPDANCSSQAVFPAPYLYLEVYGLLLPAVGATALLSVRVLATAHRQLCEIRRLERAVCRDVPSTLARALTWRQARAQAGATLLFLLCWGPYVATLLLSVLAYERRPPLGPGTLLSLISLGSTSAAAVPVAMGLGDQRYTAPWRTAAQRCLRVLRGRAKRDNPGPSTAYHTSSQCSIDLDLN
- measurement notes: Mouse TGR5 cAMP production assay (HTRF, Cisbio cAMP HiRange)
- Format: cell-based
- run parameters: HEK293-EBNA cells overexpressing mouse TGR5, HTRF cAMP HiRange; coded A-D

Solved cases below.
Lab note: compound COc1cnccc1-c1cccc(C(C)(C)NS(=O)(=O)c2cc(C(F)(F)F)ccc2C(F)(F)F)c1 [Compound 2BK] tested on mouse TGR5 receptor (Mus musculus); recorded EC50 was 1 to 30 µM

Lab note: compound Cc1cnccc1-c1cccc([C@H](C)N(CCCC(=O)NCCCS(=O)(=O)O)S(=O)(=O)c2cccc(Cl)c2C)c1 [Compound 20AL] tested on mouse TGR5 receptor (Mus musculus); recorded EC50 was < 0.1 µM

Lab note: compound Cc1cnccc1-c1cccc([C@H](C)NS(=O)(=O)c2ccccc2N)c1 [Compound 10AA] tested on mouse TGR5 receptor (Mus musculus); recorded EC50 was 1 to 30 µM

Turning to the following compound.
Lab note: compound Cc1cnccc1-c1cccc(C2CN(C(=O)CCC(=O)O)CCN2S(=O)(=O)c2cccc(Cl)c2C)c1 (stereo not shown) [Compound 46AD] tested on mouse TGR5 receptor (Mus musculus); recorded EC50 was < 0.1 µM

----------
- tgt: mouse TGR5 receptor (Mus musculus)
- Construct: expressed in transfected cells; host or cells: HEK293-EBNA (293 c18, ATCC CRL10852), Hygromycin B selection
- measurement notes: Mouse TGR5 cAMP production assay (luminescent, DiscoveRx cAMP XS+)
- Assay type: cell-based
- run parameters: HEK293-EBNA cells overexpressing mouse TGR5, luminescent cAMP XS+; coded A-D; read-out: Mouse TGR5 Lum. cAMP Activity (EC50)
- Procedure: Mouse TGR5 cAMP Production Assay We evaluated compounds of the present invention for their ability to induce cAMP production in HEK-EBNA cells overexpressing the mouse TGR5 receptor. […] In this first cAMP production assay, the cAMP production was measured using DiscoveRx's cAMP XS+ kit following the manufacturer's recommended protocol. […] In Table 33, EC50 values for both human and mouse cells were determined according to the TGR5 cAMP assays described above.
pEC50: −log10 of the molar value.
property name: pEC50

Sure, the documented pEC50 for O=S(=O)(NCc1cc(-c2ccncc2Cl)ccc1F)c1cccc(C(F)(F)F)c1 is 4.52 to 6.00

Sure, the documented pEC50 for COc1cccc(S(=O)(=O)NCc2cccc(-c3ccncc3)c2)c1 is < 4.52

Sure, the documented pEC50 for CC(C)(NS(=O)(=O)c1cccc(C(F)(F)F)c1)c1cccc(-c2ccnc3ccccc23)c1 is 4.52 to 6.00

Sure, the documented pEC50 for COc1cnccc1-c1cccc(C2(NS(=O)(=O)c3cccc(C(F)(F)F)c3)CC2)c1 is 6.00 to 7.00

Others:
Sure, the documented pEC50 for Cc1cccc(S(=O)(=O)NCc2cccc(-c3c(C)noc3C)c2)c1 is 4.52 to 6.00

Sure, the documented pEC50 for Cc1noc(C)c1-c1cccc(CNS(=O)(=O)c2cccc(C(F)(F)F)c2)c1 is 4.52 to 6.00

Sure, the documented pEC50 for CC(C)Oc1cnccc1-c1cccc(C(C)(C)NS(=O)(=O)c2cccc(C(F)(F)F)c2)c1 is 6.00 to 7.00

Sure, the documented pEC50 for CC(C)(NS(=O)(=O)c1cccc(C(F)(F)F)c1)c1cccc(-c2ccncc2)c1 is 4.52 to 6.00

Sure, the documented pEC50 for COc1cnccc1-c1cccc(C(C)(C)NS(=O)(=O)c2cccc(C)c2)c1 is 6.00 to 7.00

Sure, the documented pEC50 for Cc1ccccc1S(=O)(=O)NCc1cccc(-c2ccncc2)c1 is < 4.52

Sure, the documented pEC50 for C[C@@H](NS(=O)(=O)c1cccc(C(F)(F)F)c1)c1cccc(-c2ccncc2)c1 is 4.52 to 6.00

Sure, the documented pEC50 for COc1cnccc1-c1cccc(C(C)(C)NS(=O)(=O)c2cc(Br)cc(C(F)(F)F)c2)c1 is 6.00 to 7.00

Sure, the documented pEC50 for Cc1cnccc1-c1cccc(CNS(=O)(=O)c2cccc(C(F)(F)F)c2)c1 is 6.00 to 7.00

Sure, the documented pEC50 for COc1cnccc1-c1ccnc(CNS(=O)(=O)c2cccc(C(F)(F)F)c2)c1 is 4.52 to 6.00
